- system-name: HCV replicon
- protocol-description: HCV replicon assay (luciferase)
- Assay type: cell-based, Hepatitis C virus (HCV)
- experimental-conditions: 5-2 Luc replicon cells, 24 hours with compound, luciferase emission; first symbol of Replicon/Western
Listed next: entries and their corresponding IC50.

chemical-structure	IC50
Cc1ccc(F)c(-c2cc(-c3cccc(NC(=O)C(Cl)Cl)c3)on2)c1F	> 10 µM
O=C(Nc1cccc(-c2noc(-c3c(Cl)cccc3Cl)n2)c1)C(Cl)Cl	≤ 10 µM
O=C(Nc1cccc(-c2cc(-c3c(F)ccc(F)c3Cl)no2)c1)C(Cl)Cl	≤ 10 µM
COc1cccc(Cl)c1-c1cc(-c2cccc(NC(=O)C(Cl)Cl)c2)on1	≤ 10 µM
